Data origin, for the record: paper PMC6179045

# measurementTarget: BuChE from equine serum (eqBuChE) (Equus caballus, UniProt P81908)
# Construct: BuChE from equine serum (C4290-1KU; Sigma); purchased Sigma C4290-1KU; host or cells: equine serum
# Sequence (P81908 whole entry): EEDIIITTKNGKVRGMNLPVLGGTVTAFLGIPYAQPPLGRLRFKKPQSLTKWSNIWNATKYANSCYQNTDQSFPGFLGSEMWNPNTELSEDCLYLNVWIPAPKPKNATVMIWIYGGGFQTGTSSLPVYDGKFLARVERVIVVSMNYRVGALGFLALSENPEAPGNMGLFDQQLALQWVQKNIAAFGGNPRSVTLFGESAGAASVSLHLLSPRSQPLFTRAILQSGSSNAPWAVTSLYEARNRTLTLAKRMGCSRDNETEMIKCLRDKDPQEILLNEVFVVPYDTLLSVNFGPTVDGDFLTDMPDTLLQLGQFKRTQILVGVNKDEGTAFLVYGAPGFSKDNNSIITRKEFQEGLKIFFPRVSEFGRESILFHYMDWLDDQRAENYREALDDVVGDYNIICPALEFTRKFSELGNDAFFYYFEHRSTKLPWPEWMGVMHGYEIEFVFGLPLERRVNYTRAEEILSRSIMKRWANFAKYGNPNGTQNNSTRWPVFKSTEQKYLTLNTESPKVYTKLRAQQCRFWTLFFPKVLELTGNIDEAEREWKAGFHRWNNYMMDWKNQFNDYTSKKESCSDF
# methodSummary: BuChE activity assay (modified Ellman's method)
# Format: biochemical, equine (horse)
# conditionInfo: BuChE from horse serum; mean ± SEM, n = 3
Assign IC50 to each entry below.
One number for each entry, in µM.

Solved cases below.
| molecule | resultUnit | observedValue |
| --- | --- | --- |
| CC1=NN2C(=O)Oc3c(Br)cc(Br)cc3C2C1 (centres unmarked) | µM | 1.63 |
| CC1=NN2C(=O)Oc3c(Cl)cc(Cl)cc3C2C1 (centres unmarked) | µM | 1.06 |
| O=C1Oc2ccccc2C2CC(c3ccccc3)=NN12 (centres unmarked) | µM | 9.47 |
| CC1=NN2C(=O)Oc3ccc(Br)cc3C2C1 (centres unmarked) | µM | 1.63 |

Read the next record carefully.
IC50 for CC1=NN2C(=O)Oc3c(Br)cc(Cl)cc3C2C1 (centres unmarked) is 2.44
